B1: HDV Ribozyme (parent)
chain: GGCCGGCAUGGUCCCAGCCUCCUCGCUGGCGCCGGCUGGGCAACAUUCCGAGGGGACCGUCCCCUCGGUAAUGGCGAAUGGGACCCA

Variants of: B1
Experiment: self-cleavage, relative activity (ratio to wild type); higher = more cleavage; co-transcriptional
Measured attribute: self-cleavage
I only need the number, thanks.

See these solved cases before continuing.
- Sequence input: "GGCAGGCAUGGUCCCAGCCUCCUCGCUGGCGCCGGCUGGGCAACAUUCCGAGGGGACCGUCCCCUCGGUAAUGGCGAAUCGGACCCA"
  self-cleavage: 0
- Sequence input: "GGCCGGCAUGGUCCCAGUCUCCUCGCUGGCGCCGGCUGGGCAACAUUCCGAGGGGACCGUCCCCUCGGUAAUGUCGAAUGGGACCCA"
  self-cleavage: 0.166
- Sequence input: "GGCGGGCAUGGUCCCAGCCUCCUCGCUGGCGCCGGCUGGGCAACAUUCCGAGGGGACCGUGCCCUCGGUAAUGGCGAAUGGGACCCA"
  self-cleavage: 0.325
- Sequence input: "UGCCGGCAUGGUCCCAGCCUCCUCGCUGGCGCCGGCUGGGCAACAUUCCGAGGGGACCGUCCCCUCUGUAAUGGCGAAUGGGACCCA"
  self-cleavage: 0.332

The reported self-cleavage of the variant GGCCGGCAUUGUCCCAGCCUCCUCGCUGGCGCCGGCUGAGCAACAUUCCGAGGGGACCGUCCCCUCGGUAAUGGCGAAUGGGACCCA was 0.199

The reported self-cleavage of the variant GGCCGGCAUGGUCCCCGCCUCCCCGCUGGCGCCGGCUGGGCAACAUUCCGAGGGGACCGUCCCCUCGGUAAUGGCGAAUGGGACCCA was 0.87

The reported self-cleavage of the variant GCCCGGCAUGGUCCCAGCCUCCUCGCUGGCGCCGGCUGGGCAACAUACCGAGGGGACCGUCCCCUCGGUAAUGGCGAAUGGGACCCA was 0.0208

The reported self-cleavage of the variant GGCCGGCAUGGUCCCAGCCUCCUCGCUGGCGCCGGCUGGGCAACAUUCAGAGGGGACCGUCCCCUCGGUAAUGGCGAAUGGGACGCA was 0.762
